- System: WSU-FSCCL (Lymphoma)
- protocol.notes: Cell line screen, WSU-FSCCL
- Assay type: cell-based
- study.conditions: AICDA Expression Negative
- Description: The activity of the claimed compounds was measured in a variety of cell lines with different expression levels of activation induced cytidine deaminase (AICDA). The potency assay was repeated in all of the listed cell lines and the EC50 values recorded.
attribute.measured: EC50 (nM)
State the answer as a number, implicitly in nM.

Reported EC50 for CC(C)OC(=O)N[C@H]1CC[C@H](c2ncc(-c3ccc(NC(=O)NCc4ccccc4)cc3S(=O)(=O)NC(C)(C)C)s2)CC1 [Ex. 66A] : what is it?
25

EC50 for CC(C)OC(=O)N[C@H]1CC[C@H](c2ncc(-c3ccc(NC(=O)NCc4ccccn4)cc3S(=O)(=O)NC(C)(C)C)s2)CC1 [Ex. 29] ?
67

What measured EC50 goes with CC(C)OC(=O)Nc1ccc(-c2cnc([C@H]3CC[C@H](NC(=O)OC(C)C)CC3)s2)c(S(=O)(=O)NC(C)(C)C)c1 [Ex. 67A] ?
344

----------
- protocol.notes: Bi-directional Caco-2 permeability
- Assay type: in vitro ADME
- study.conditions: human, Caco-2, Caco-2, AB direction; read-out: AB Recovery %
Documented recovery at 90 min across a set of molecules
Give the value; after it, write the unit.

Before answering, review these 3 worked examples.
molecule	recovery at 90 min
CC(C)OC(=O)Nc1ccc(-c2sc(C3CCC(NC(=O)OC(C)C)CC3)nc2F)c(S(=O)(=O)NC(C)(C)C)c1 (stereo not shown)	52.3%
CC(C)OC(=O)N[C@H]1CC[C@H](c2ncc(-c3ccc(NC(=O)NCc4ccccc4F)cc3S(=O)(=O)NC(C)(C)C)s2)CC1	66.9%
CC(C)OC(=O)Nc1ccc(-c2cnc(C3CCC(NC(=O)OC4COC4)CC3)s2)c(S(=O)(=O)NC(C)(C)C)c1 (stereo not shown)	80.1%

Shifting focus to the molecule that follows.
Find the recorded recovery at 90 min belonging to CC(C)OC(=O)N[C@H]1CC[C@H](c2ncc(-c3ccc(NC(=O)NCc4ncccc4F)cc3S(=O)(=O)NC(C)(C)C)s2)CC1 and report it.
70.5%

----------
Reported values of recovery at 90 min for individual entries
- protocol.notes: Bi-directional Caco-2 permeability
- Assay type: in vitro ADME
- study.conditions: human, Caco-2, Caco-2, BA direction; read-out: BA Recovery %
Reply numerically in %, unit not repeated.

Reference set, count: 6
compound	recovery at 90 min (%)
CC(C)OC(=O)Nc1ccc(-c2cnc(C3CCC(NC(=O)OC4COC4)CC3)s2)c(S(=O)(=O)NC(C)(C)C)c1 (stereo not shown)	90.3
CC(C)(C)NS(=O)(=O)c1cc(NC(=O)NCc2ccccc2)ccc1-c1cnc([C@H]2CC[C@H](NC(=O)OC(C)(C)C)CC2)s1	87.2
CC(C)OC(=O)Nc1ccc(-c2cnc([C@H]3CC[C@H](NC(=O)OC(C)C)CO3)s2)c(S(=O)(=O)NC(C)(C)C)c1 [Ex. 60B]	84.3
C[C@H](NC(=O)Nc1ccc(-c2cnc(C3CCC(NC(=O)OC4COC4)CC3)s2)c(S(=O)(=O)NC(C)(C)C)c1)c1ccccc1 (stereo partly shown)	85.7
CC(C)OC(=O)N[C@H]1CC[C@H](c2ncc(-c3ccc(NC(=O)NCc4ccccc4)cc3S(=O)(=O)NC(C)(C)C)s2)CC1 [Ex. 66A]	81.2
CC(C)(C)NS(=O)(=O)c1cc(NC(=O)NCc2ccccc2)ccc1-c1cnc([C@H]2CC[C@H](NC(=O)OC3COC3)CC2)s1	80.7

Continue with the compound presented below.
Report recovery at 90 min for CC(C)OC(=O)N[C@H]1CC[C@H](c2ncc(-c3ccc(NC(=O)NCc4ccccc4)cc3S(=O)(=O)NC(C)(C)C)s2)OC1 [Ex. 59B] please.
82

----------
- protocol.notes: Human liver microsome stability
- Assay type: in vitro ADME
- study.conditions: human liver microsomes
- Procedure: The stability of the claimed compounds was determined in the presences of human liver microsomes. The compounds were incubated with the microsomes at 37° C. for 45 minutes. Samples were analyzed using LC-MS/MS. Data analysis included half-life, clearance rate, and the percentage of hepatic blood flow (% QH) for each of the compounds in the different species.
attribute.measured: % QH (percentage of hepatic blood flow) (%)
Respond numerically; units are % and should not be typed.

Dear colleague, I am looking for the recorded % QH (percentage of hepatic blood flow) of the following compound: CC(C)OC(=O)N[C@H]1CC[C@H](c2ncc(-c3ccc(NC(=O)NCc4ccccn4)cc3S(=O)(=O)NC(C)(C)C)s2)CC1
78.8

% QH (percentage of hepatic blood flow) lookup needed for CC(C)OC(=O)N[C@H]1CC[C@H](c2ncc(-c3ccc(NC(=O)NCc4ncccc4F)cc3S(=O)(=O)NC(C)(C)C)s2)CC1 , thanks.
77.3

Requested field: % QH (percentage of hepatic blood flow). Item: CC(C)OC(=O)N[C@H]1CC[C@H](c2ncc(-c3ccc(NC(=O)NCc4ccccc4)cc3S(=O)(=O)NC(C)(C)C)s2)CC1 [Ex. 66A]
49.6

----------
Below, each of the compounds is paired with its reported recovery at 90 min value.
- protocol.notes: Bi-directional Caco-2 permeability
- Type: in vitro ADME
- study.conditions: human, Caco-2, Caco-2, BA direction; read-out: BA Recovery %
Please state the figure in %; there is no need to write the unit.

Consider the reported recovery at 90 min for these compounds:
compound	units.symbol	recovery at 90 min
CC(C)OC(=O)N[C@H]1CC[C@H](c2ncc(-c3ccc(NC(=O)OC[C@H]4CCCN4C)cc3S(=O)(=O)NC(C)(C)C)s2)CC1 [Ex. 34]	%	96.8
CC(C)NC(=O)O[C@H]1CC[C@H](c2ncc(-c3ccc(NC(=O)NCc4ccccc4)cc3S(=O)(=O)NC(C)(C)C)s2)CC1 [Ex. 21]	%	78.3
CC(C)(C)NS(=O)(=O)c1cc(NC(=O)NCc2ccccn2)ccc1-c1cnc(C2CCC(NC(=O)OC(C)(C)C)CC2)s1 (stereo not drawn) [Ex. 45]	%	84.4
CC(C)OC(=O)Nc1ccc(-c2cnc([C@H]3CC[C@H](NC(=O)OC(C)C)CC3)s2)c(S(=O)(=O)NC(C)(C)C)c1 [Ex. 67A]	%	78.6
CC(C)(C)NS(=O)(=O)c1cc(NC(=O)NCc2ccccc2F)ccc1-c1cnc(C2CCC(NC(=O)OC3COC3)CC2)s1 (stereo not drawn) [Ex. 53]	%	90.9

Now for the compound whose recovery at 90 min we want.
Would you kindly share the measured recovery at 90 min for CC(C)OC(=O)N[C@H]1CC[C@H](c2ncc(-c3ccc(NC(=O)NCc4ccccc4F)cc3S(=O)(=O)NC(C)(C)C)s2)CC1 [Ex. 28] ?
81

----------
- protocol.notes: Pharmacokinetic (PK) study, plasma by LC-MS
- Assay type: in vivo, Rat
- study.conditions: plasma; Rat Female, po @ 80 mg/kg (30% PEG400, 10% Vitamin E TPGS in water)
attribute.measured: half-life (h)
The answer is to be given in h; state only the numeric part.

compound	reading
CC(C)OC(=O)Nc1ccc(-c2cnc([C@H]3CC[C@H](NC(=O)OC(C)C)CC3)s2)c(S(=O)(=O)NC(C)(C)C)c1 [Ex. 67A]	11.5

What measured half-life goes with CC(C)OC(=O)N[C@H]1CC[C@H](c2ncc(-c3ccc(NC(=O)NCc4ccccc4)cc3S(=O)(=O)NC(C)(C)C)s2)CC1 [Ex. 66A] ?
2.59

# query: half-life of entry CC(C)OC(=O)N[C@H]1CC[C@H](c2ncc(-c3ccc(NC(=O)NCc4ncccc4F)cc3S(=O)(=O)NC(C)(C)C)s2)CC1
4.75

Please give the measured half-life for this compound: CC(C)OC(=O)N[C@H]1CC[C@H](c2ncc(-c3ccc(NC(=O)NCc4ccccn4)cc3S(=O)(=O)NC(C)(C)C)s2)CC1
4.66

----------
- protocol.notes: Bi-directional Caco-2 permeability
- Format: in vitro ADME
- study.conditions: human, Caco-2, Caco-2, AB direction; read-out: AB Recovery %
Binarize recovery at 90 min at 60%; below is TRUE, at or above is FALSE.

Record excerpt, results attached:
molecule	group.label
CC(C)OC(=O)N[C@@H]1CC[C@@H](c2ncc(-c3ccc(NC(=O)NCc4ccccc4)cc3S(=O)(=O)NC(C)(C)C)s2)OC1 [Ex. 59A]	TRUE
CC(C)OC(=O)Nc1ccc(-c2cnc([C@@H]3CC[C@@H](NC(=O)OC(C)C)CN3)s2)c(S(=O)(=O)NC(C)(C)C)c1 (relative stereo)	FALSE
C[C@H](NC(=O)Nc1ccc(-c2cnc(C3CCC(NC(=O)OC4COC4)CC3)s2)c(S(=O)(=O)NC(C)(C)C)c1)c1ccccc1F (stereo partly shown)	FALSE

Could you please tell me whether recovery at 90 min recorded for CC(C)(C)NS(=O)(=O)c1cc(NC(=O)NCc2ccccc2)ccc1-c1cnc([C@H]2CC[C@H](NC(=O)OC3COC3)CC2)s1 is less than 60%?
FALSE

API: query returns whether the molecule falls strictly under 60% in recovery at 90 min. Query: CC(C)OC(=O)N[C@H]1CC[C@H](c2ncc(-c3ccc(NC(=O)NCc4ccccc4)cc3S(=O)(=O)NC(C)(C)C)s2)CC1 [Ex. 66A]
FALSE

Report whether reported recovery at 90 min is lower than 60% (strictly) for CC(C)OC(=O)Nc1ccc(-c2cnc([C@H]3CC[C@H](NC(=O)OC4CCCC4)CC3)s2)c(S(=O)(=O)NC(C)(C)C)c1
TRUE

Confirm or reject: recovery at 90 min of CC(C)OC(=O)N[C@@H]1CC[C@@H](c2ncc(-c3ccc(NC(=O)NCc4ccccc4)cc3S(=O)(=O)NC(C)(C)C)s2)NC1 lies strictly below 60%
FALSE

Dear reviewer, please state whether CC(C)OC(=O)N[C@H]1CC[C@H](c2ncc(-c3ccc(NC(=O)OC[C@H]4CCCN4C)cc3S(=O)(=O)NC(C)(C)C)s2)CC1 has recovery at 90 min strictly beneath 60%.
FALSE

Please let me know if CC(C)OC(=O)Nc1ccc(-c2cnc(C34CCC(NC(=O)OC(C)C)(CC3)CC4)s2)c(S(=O)(=O)NC(C)(C)C)c1 shows recovery at 90 min below 60%.
TRUE

# strict comparison: is reported recovery at 90 min < 60%? input = CC(C)OC(=O)Nc1ccc(-c2cnc([C@H]3CC[C@H](NC(=O)OC(C)(C)C)CC3)s2)c(S(=O)(=O)NC(C)(C)C)c1
TRUE

Hello, is recovery at 90 min of the following molecule strictly smaller than 60%? CC(C)OC(=O)Nc1ccc(-c2cnc([C@H]3CC[C@H](NC(=O)OC(C)C)CC3)s2)c(S(=O)(=O)NC(C)(C)C)c1 [Ex. 67A]
TRUE

Please indicate whether the reported recovery at 90 min of CC(C)OC(=O)NC1CCC(c2ncc(-c3ccc(NC(=O)OC4COC4)cc3S(=O)(=O)NC(C)(C)C)s2)CC1 (stereo not shown) is strictly below 60%.
FALSE

Lab note: confirm whether the reported recovery at 90 min for this molecule is below 60%, equality not counting. molecule: CC(C)(C)NS(=O)(=O)c1cc(NC(=O)NCc2ccccn2)ccc1-c1cnc(C2CCC(NC(=O)OC3COC3)CC2)s1 (stereo not shown)
FALSE
